# reported_conditions: buffer; pH 7.4; 200.0 µM
Reported solubility kinetic values follow for various molecules
Express your answer in µg/mL, writing the number without its unit.

Previously resolved entries follow.
>>> observed_value("O=c1c2ccccc2nc(/C=C/c2ccccc2)n1-c1ccc(O)cc1")
1.6
>>> observed_value("CCN(CC)c1nc2c(c(=O)[nH]c(=O)n2C)n1Cc1ccccc1")
30.5
>>> observed_value("Cc1noc(C)c1C(=O)Nc1ccc2ccccc2c1")
11.2
>>> observed_value("Cn1c(C(O)c2ccc(Br)cc2)nc(Cl)c1Cl (configuration not stated)")
13.9
>>> observed_value("Cc1ccccc1OC(C)C(=O)NCCCN1CCOCC1 (configuration not stated)")
41.5

Turning to the following molecule.
Qu. Fill in: solubility kinetic of O=C1C2CCCCN2C(=O)N1CCCN1CCN(c2ccc(F)cc2)CC1 (configuration not stated) is ___
Ans. 48.1

###

# reported_conditions: buffer; pH 7.4; 200.0 µM
Entries are sorted into classes by solubility kinetic as follows: lo (below 10 µg/mL), med (10 µg/mL to below 40 µg/mL), hi (40 µg/mL or more)

>>> label_value("COc1cc(C(C)=O)ccc1OC(=O)N(C)c1ccccc1")
"hi"
>>> label_value("CN(CC(=O)Nc1c(Cl)cccc1Cl)CC(=O)N(C)C1(C#N)CCCCC1")
"hi"
>>> label_value("O=C(CN1C(=O)NC2(CCOc3ccccc32)C1=O)c1ccc(Cl)cc1 (stereo not given)")
"lo"
>>> label_value("CN(Cc1cccs1)C(=O)COC(=O)CNC(N)=O")
"hi"
>>> label_value("O=C(COC(=O)c1ccc2c(c1)OCO2)Nc1ccccc1")
"lo"

Qu. Which category fits this record: COc1cccc2c(Cl)c(CC=C(Cl)Cl)c(C)nc12
Ans. lo

Qu. Also need NCC(=O)Nc1ccc(Br)cc1 , thanks.
Ans. med

Qu. Also need O=C(O)c1ccc(Nc2nc(-c3cccnc3)cs2)cc1 , thanks.
Ans. hi

Qu. Also need COc1ccc(CCN=C(N)NS(=O)(=O)c2ccc(C)c(C)c2)cc1OC , thanks.
Ans. hi

Qu. Also need CN(C(=O)C(C)(C)C)C1c2c(ccc3ccccc23)OCC1CO (stereo not given) , thanks.
Ans. lo

Qu. Also need O=S(=O)(Nc1cccc(S(=O)(=O)N2CCCC2)c1)c1ccccc1F , thanks.
Ans. hi

Qu. Also need COc1ccc(-c2nc(CCl)cs2)cc1OC.Cl , thanks.
Ans. hi

Qu. Also need Cc1ccc(Cl)c(NC(=O)COC(=O)c2cc[n+]([O-])cc2)c1Cl , thanks.
Ans. hi

Qu. Also need O=C(Cc1ccccc1)NC(Cc1ccc(Cl)cc1)C(=O)O (stereo not given) , thanks.
Ans. hi

Qu. Also need O=C(CSc1ncccn1)Nc1ccc(Cl)c(S(=O)(=O)N2CCOCC2)c1 , thanks.
Ans. hi

###

# reported_conditions: buffer; pH 7.4; 200.0 µM
Entry flag: rule met if solubility kinetic reaches 30 µg/mL; rule not met if it does not.

Reference set, count: 5
>>> label_value("CC(C)(C)c1ccc(-c2cnco2)cc1")
"rule not met"
>>> label_value("Cc1ccc(CCN2CC(C(=O)NCCC(C)C)CC2=O)cc1 (centres undefined)")
"rule met"
>>> label_value("COc1ccc(Nc2oc(-c3ccccc3F)nc2C#N)cc1")
"rule not met"
>>> label_value("Cc1cc(Br)ccc1NC(=O)CNC(=O)c1cnn(C)c1")
"rule met"
>>> label_value("Cc1cc(Cl)ccc1OCC(=O)NC(=S)Nc1ccc(Cl)cn1")
"rule not met"

Qu. Does Cc1[nH]c2ccc(C(=O)NCCN3CCOCC3)cc2c1C have a reported solubility kinetic of at least 30 µg/mL?
Ans. rule met

Qu. Also need O=C(Cn1c(CO)nc2ccccc21)NCCc1ccc(F)cc1 , thanks.
Ans. rule met

Qu. Also need Cc1cc(Cl)c2ccc3ccccc3c2n1 , thanks.
Ans. rule not met

Qu. Also need O=C(CSCc1cccc(F)c1)NCc1ccccc1 , thanks.
Ans. rule met

Qu. Also need O=C1C2C3C=CC(C3)C2C(=O)N1c1ccc2ccccc2c1 (centres undefined) , thanks.
Ans. rule not met

Qu. Also need COc1ccc(OC)c(/C=C/C(=O)OCC(=O)N2CCCC2)c1 , thanks.
Ans. rule met

Qu. Also need O=c1c2ccccc2nc(-c2ccccc2Cl)n1-c1cccc(O)c1 , thanks.
Ans. rule met

Qu. Also need Cc1cc(C(=O)NC2CCCCCCC2)ccc1[N+](=O)[O-] , thanks.
Ans. rule not met

Qu. Also need CSc1ncc(C(=O)Nc2ccc(C)cc2C)c(C)n1 , thanks.
Ans. rule not met

Qu. Also need Cc1csc(NC(=O)c2ccc(C)s2)n1 , thanks.
Ans. rule not met

Qu. Also need O=C(COC(=O)c1ccc(Cl)nc1)Nc1cc(S(=O)(=O)N2CCOCC2)ccc1Cl , thanks.
Ans. rule met

Qu. Also need COc1cc([N+](=O)[O-])ccc1NC(=O)C1C2C=CC(C2)C1C(=O)O (centres undefined) , thanks.
Ans. rule met

Qu. Also need Cc1nc([N+](=O)[O-])cn1CC(=O)c1ccc(OC(F)(F)F)cc1 , thanks.
Ans. rule not met

Qu. Also need O=C1CC(c2ccc(F)cc2)CC2=C1C=Nc1ccccc1N2 (centres undefined) , thanks.
Ans. rule not met

Qu. Also need O=[N+]([O-])c1ccc(N(CC2CO2)S(=O)(=O)c2ccccc2)cc1 (centres undefined) , thanks.
Ans. rule met

Qu. Also need Cc1ccc(-c2nc3ccccc3nc2-c2ccccc2)cc1 , thanks.
Ans. rule not met
